targetSystem: p-glycoprotein (Homo sapiens)
Construct: Multidrug-resistant and -sensitive cells of the T-lymphoblastoid leukemia cell lines CCRF-VCR 1000 and CCRF-CEM are withdrawn from the cell culture; endogenous in cells; CCRF-CEM (sensitive)
Sequence (P08183 whole entry): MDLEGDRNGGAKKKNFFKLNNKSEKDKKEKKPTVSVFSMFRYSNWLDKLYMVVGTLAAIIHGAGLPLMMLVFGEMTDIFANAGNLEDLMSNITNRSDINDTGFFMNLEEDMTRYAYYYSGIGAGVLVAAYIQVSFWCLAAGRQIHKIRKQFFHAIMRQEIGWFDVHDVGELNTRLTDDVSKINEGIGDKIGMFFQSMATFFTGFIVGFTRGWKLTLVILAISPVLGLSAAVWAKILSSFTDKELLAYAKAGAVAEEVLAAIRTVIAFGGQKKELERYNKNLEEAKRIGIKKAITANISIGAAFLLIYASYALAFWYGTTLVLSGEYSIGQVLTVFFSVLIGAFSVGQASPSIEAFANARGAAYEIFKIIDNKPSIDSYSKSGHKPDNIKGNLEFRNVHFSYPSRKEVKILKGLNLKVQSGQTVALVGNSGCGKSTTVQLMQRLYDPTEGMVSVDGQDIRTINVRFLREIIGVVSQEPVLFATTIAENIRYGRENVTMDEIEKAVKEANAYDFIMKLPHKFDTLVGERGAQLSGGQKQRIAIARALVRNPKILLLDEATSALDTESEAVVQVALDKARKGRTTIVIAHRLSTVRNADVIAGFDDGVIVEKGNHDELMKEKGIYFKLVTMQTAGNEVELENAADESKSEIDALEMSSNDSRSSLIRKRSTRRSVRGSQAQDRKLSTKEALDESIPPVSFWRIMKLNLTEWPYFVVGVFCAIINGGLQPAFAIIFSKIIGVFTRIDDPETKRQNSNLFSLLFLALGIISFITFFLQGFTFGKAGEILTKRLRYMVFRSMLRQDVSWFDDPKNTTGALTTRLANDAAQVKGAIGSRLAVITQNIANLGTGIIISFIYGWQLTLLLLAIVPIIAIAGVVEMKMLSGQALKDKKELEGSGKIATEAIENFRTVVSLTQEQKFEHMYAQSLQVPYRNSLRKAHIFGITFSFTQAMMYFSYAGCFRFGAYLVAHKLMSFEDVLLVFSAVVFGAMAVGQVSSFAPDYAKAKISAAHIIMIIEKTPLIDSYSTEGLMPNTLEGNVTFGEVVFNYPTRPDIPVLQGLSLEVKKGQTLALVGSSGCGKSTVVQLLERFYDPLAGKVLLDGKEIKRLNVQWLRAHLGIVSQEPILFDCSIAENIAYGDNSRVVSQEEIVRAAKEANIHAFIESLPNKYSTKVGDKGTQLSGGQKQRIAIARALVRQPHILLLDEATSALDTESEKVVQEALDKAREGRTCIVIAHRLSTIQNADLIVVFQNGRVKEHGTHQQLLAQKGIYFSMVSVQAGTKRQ
protocolDescription: Measurement of P-glycoprotein inhibition (Rhodamine 123 accumulation)
Structures can show the parent of a compound that is named as a salt.
property: EC50 (nM)
All answers are understood in nM, so give the number only.

Previously resolved entries follow.
Task: Record lookup: for p-glycoprotein (Homo sapiens), what EC50 belongs to `CCCCCn1cnc2nc(C)c(C(=O)CCCCCCCN3CCC(c4ccccc4)(c4ccccc4)CC3)c(-c3cccc([N+](=O)[O-])c3)c2c1=O` ?
Result: 20

Task: Record lookup: for p-glycoprotein (Homo sapiens), what EC50 belongs to `Cc1nc2ncn(CCCN3CCOCC3)c(=O)c2c(-c2cccc([N+](=O)[O-])c2)c1C(=O)CCCCCCCCCCN1CCC(c2ccccc2)(c2ccccc2)CC1` ?
Result: 25.1

Task: Record lookup: for p-glycoprotein (Homo sapiens), what EC50 belongs to `CCCn1cnc2nc(C)c(C(=O)CCCCCCCCCCN3CCC(c4ccccc4)(c4ccccc4)CC3)c(-c3cccc([N+](=O)[O-])c3)c2c1=O` ?
Result: 50.1

Task: Record lookup: for p-glycoprotein (Homo sapiens), what EC50 belongs to Cc1nc2nc(C)n(CCN3CCOCC3)c(=O)c2c(-c2cccc([N+](=O)[O-])c2)c1C(=O)CCCCCCCCCCN1CCC(c2ccccc2)(c2ccccc2)CC1 [Compound 1, dihydrochloride] ?
Result: 25.1

Task: Record lookup: for p-glycoprotein (Homo sapiens), what EC50 belongs to `Cc1nc2ncn(CCN3CCOCC3)c(=O)c2c(-c2cccc([N+](=O)[O-])c2)c1C(=O)CCCCCCCCCCN1CCC(c2ccccc2)(c2ccccc2)CC1` ?
Result: 25.1

Task: Record lookup: for p-glycoprotein (Homo sapiens), what EC50 belongs to `CCCCn1cnc2nc(C)c(C(=O)CCCCCCCN3CCC(c4ccccc4)(c4ccccc4)CC3)c(-c3cccc([N+](=O)[O-])c3)c2c1=O` ?
Result: 50.1

Task: Record lookup: for p-glycoprotein (Homo sapiens), what EC50 belongs to `Cc1nc2ncn(Cc3ccccc3)c(=O)c2c(-c2cccc([N+](=O)[O-])c2)c1C(=O)CCCCCCCCCCN1CCC(c2ccccc2)(c2ccccc2)CC1` ?
Result: 25.1

Task: Record lookup: for p-glycoprotein (Homo sapiens), what EC50 belongs to `CCCCCn1cnc2nc(C)c(C(=O)CCCCCCCCCCN3CCC(c4ccccc4)(c4ccccc4)CC3)c(-c3cccc([N+](=O)[O-])c3)c2c1=O` ?
Result: 31.6

Task: Record lookup: for p-glycoprotein (Homo sapiens), what EC50 belongs to `Cc1nc2nc(C)n(CCCN3CCOCC3)c(=O)c2c(-c2cccc([N+](=O)[O-])c2)c1C(=O)CCCCCCCCCCN1CCC(c2ccccc2)(c2ccccc2)CC1` ?
Result: 31.6

Task: Record lookup: for p-glycoprotein (Homo sapiens), what EC50 belongs to `COc1ccc(-n2cnc3nc(C)c(C(=O)CCCCCCCCCCN4CCC(c5ccccc5)(c5ccccc5)CC4)c(-c4cccc([N+](=O)[O-])c4)c3c2=O)cc1` ?
Result: 39.8

Continuing:
Task: Record lookup: for p-glycoprotein (Homo sapiens), what EC50 belongs to `CCCCCn1c(C)nc2nc(C)c(C(=O)CCCCCCCN3CCC(c4ccccc4)(c4ccccc4)CC3)c(-c3cccc([N+](=O)[O-])c3)c2c1=O` ?
Result: 79.4
